Test system: NCI/ADR-RES
Assay: NCI-60 SRB screen
Type: cell-based, human
Settings: Homo sapiens, single dose 10^−5 M, read-out: Growth inhibition (%)
// reported inhibition at 10 µM for each item listed
quantity: inhibition at 10 µM (%)

INSERT INTO assay_data (compound, unitlabel, observed) VALUES
  ('COc1ccc(C2NC(=O)C(Cl)c3c2sc2c(F)cccc32)c(OC)c1 (centres unmarked)', '%', -5.94),
  ('O=C1C(=Cc2ccccc2[N+](=O)[O-])Sc2c(F)cccc21', '%', 13.5),
  ('COc1ccc(C=C2Sc3c(F)cccc3C2=O)c(OC)c1', '%', -3.61),
  ('COc1ccc(C2NC(=O)C(Cl)c3c2sc2c(F)cccc32)cc1 (centres unmarked)', '%', 9.18),
  ('O=[N+]([O-])c1cccc(C2NC(Cl)=C(Cl)c3c2sc2c(F)cccc32)c1 (centres unmarked)', '%', -2.76);

###

System: ACHN
Test: NCI-60 SRB screen;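 also: half-maximal inhibitory concentration read as cell viability unlike GI50 net growth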
Assay type: cell-based
Details: Homo sapiens, five dose
quantity: IC50 (µM)

INSERT INTO results (molecule, quantity, unitlabel, observed) VALUES
  ('N#CC1C(=O)NC(c2ccccc2[N+](=O)[O-])c2sc3c(F)cccc3c21 (stereo not shown)', 'IC50', 'µM', 29.5);

###

Tested on: MCF7
Assay: NCI-60 SRB screen
Type: cell-based, human
Conditions: Homo sapiens, MCF-7, single dose 10^−5 M, read-out: Growth inhibition (%)
# cutoff 8% applies to inhibition at 10 µM; >= gives TRUE, < gives FALSE

INSERT INTO measurements (compound, grouplabel) VALUES
  ('COc1ccc(C2NC(=O)C(C#N)c3c2sc2c(F)cccc32)c(OC)c1 (stereo not drawn)', 'TRUE'),
  ('N#CC1C(=O)NC(c2cccc([N+](=O)[O-])c2)c2sc3c(F)cccc3c21 (stereo not drawn)', 'TRUE'),
  ('CCN1CCN(C2C(=O)NC(c3cccc([N+](=O)[O-])c3)c3sc4c(F)cccc4c32)CC1 (stereo not drawn)', 'FALSE'),
  ('COc1ccc(C2NC(=O)C(C#N)c3c2sc2c(F)cccc32)cc1 (stereo not drawn)', 'TRUE'),
  ('O=[N+]([O-])c1cccc(C2NC(Cl)=C(Cl)c3c2sc2c(F)cccc32)c1 (stereo not drawn)', 'FALSE'),
  ('O=C1NC(c2cccc([N+](=O)[O-])c2)c2sc3c(F)cccc3c2C1Cl (stereo not drawn)', 'TRUE'),
  ('N#CC1C(=O)NC(c2ccccc2[N+](=O)[O-])c2sc3c(F)cccc3c21 (stereo not drawn)', 'TRUE'),
  ('O=C1NC(c2cccc([N+](=O)[O-])c2)c2sc3c(F)cccc3c2C1N1CCCCC1 (stereo not drawn)', 'TRUE'),
  ('O=C1NC(c2cccc([N+](=O)[O-])c2)c2sc3c(F)cccc3c2C1N1CCOCC1 (stereo not drawn)', 'TRUE');

###

System: K-562
Test: NCI-60 SRB screen;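 also: half-maximal inhibitory concentration read as cell viability unlike GI50 net growth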
Format: cell-based, human
Conditions: Homo sapiens, K562; K-562; five dose
pIC50: −log10 of the molar value.
quantity: pIC50

INSERT INTO measurements (compound, testtarget, quantity, observed) VALUES
  ('N#CC1C(=O)NC(c2ccccc2[N+](=O)[O-])c2sc3c(F)cccc3c21 (stereo not shown) [Compound 5c]', 'K-562', 'pIC50', 5.50);

###

Tested on: TK-10
Assay: NCI-60 SRB screen
Type: cell-based, human
Conditions: Homo sapiens; TK-10; single dose 10^−5 M; read-out: Growth inhibition (%)
# cutoff -40% applies to inhibition at 10 µM; >= gives True, < gives False

INSERT INTO assay_data (compound, grouplabel) VALUES
  ('COc1ccc(C2NC(=O)C(Cl)c3c2sc2c(F)cccc32)c(OC)c1 (stereo not drawn)', 'True'),
  ('COc1ccc(C2NC(=O)C(C#N)c3c2sc2c(F)cccc32)c(OC)c1 (stereo not drawn)', 'True'),
  ('O=C1NC(c2cccc([N+](=O)[O-])c2)c2sc3c(F)cccc3c2C1N1CCOCC1 (stereo not drawn)', 'True'),
  ('N#CC1C(=O)NC(c2cccc([N+](=O)[O-])c2)c2sc3c(F)cccc3c21 (stereo not drawn)', 'False'),
  ('COc1ccc(C2NC(=O)C(C#N)c3c2sc2c(F)cccc32)cc1 (stereo not drawn)', 'True'),
  ('O=[N+]([O-])c1cccc(C2NC(Cl)=C(Cl)c3c2sc2c(F)cccc32)c1 (stereo not drawn)', 'True'),
  ('COc1ccc(C2NC(=O)C(Cl)c3c2sc2c(F)cccc32)cc1 (stereo not drawn)', 'True'),
  ('O=C1C(=Cc2ccccc2[N+](=O)[O-])Sc2c(F)cccc21', 'True'),
  ('O=C1NC(c2cccc([N+](=O)[O-])c2)c2sc3c(F)cccc3c2C1N1CCCCC1 (stereo not drawn)', 'False');

###

System: M14
Assay: NCI-60 SRB screen
Type: cell-based, human
Settings: Homo sapiens; M14; single dose 10^−5 M; read-out: Growth inhibition (%)
// reported inhibition at 10 µM for each item listed
quantity: inhibition at 10 µM (%)

INSERT INTO measurements (molecule, unitlabel, observed) VALUES
  ('COc1ccc(C2NC(=O)C(C#N)c3c2sc2c(F)cccc32)cc1 (stereo not drawn)', '%', 66.7),
  ('O=C1NC(c2cccc([N+](=O)[O-])c2)c2sc3c(F)cccc3c2C1Cl (stereo not drawn)', '%', -0.99),
  ('O=C1NC(c2cccc([N+](=O)[O-])c2)c2sc3c(F)cccc3c2C1N1CCCCC1 (stereo not drawn)', '%', 1.9),
  ('COc1ccc(C2NC(=O)C(Cl)c3c2sc2c(F)cccc32)cc1 (stereo not drawn)', '%', 3.86),
  ('N#CC1C(=O)NC(c2ccccc2[N+](=O)[O-])c2sc3c(F)cccc3c21 (stereo not drawn)', '%', 7.3),
  ('O=C1NC(c2ccccc2[N+](=O)[O-])c2sc3c(F)cccc3c2C1Cl (stereo not drawn)', '%', 1.7);

###

Test system: SNB-75
Experiment: NCI-60 SRB screen
Assay type: cell-based, human
Conditions: Homo sapiens; SNB-75; single dose 10^−5 M; read-out: Growth inhibition (%)
quantity: inhibition at 10 µM

INSERT INTO assay_data (molecule, testtarget, quantity, observed) VALUES
  ('COc1ccc(C=C2Sc3c(F)cccc3C2=O)c(OC)c1 [Compound 2a]', 'SNB-75', 'inhibition at 10 µM', '12.6%'),
  ('O=C1C(=Cc2ccccc2[N+](=O)[O-])Sc2c(F)cccc21 [Compound 2c]', 'SNB-75', 'inhibition at 10 µM', '-1.55%'),
  ('O=C1NC(c2ccccc2[N+](=O)[O-])c2sc3c(F)cccc3c2C1Cl (centres unmarked) [Compound 4c]', 'SNB-75', 'inhibition at 10 µM', '11.7%'),
  ('COc1ccc(C2NC(=O)C(Cl)c3c2sc2c(F)cccc32)c(OC)c1 (centres unmarked) [Compound 4a]', 'SNB-75', 'inhibition at 10 µM', '22.3%'),
  ('COc1ccc(C2NC(=O)C(Cl)c3c2sc2c(F)cccc32)cc1 (centres unmarked) [Compound 4b]', 'SNB-75', 'inhibition at 10 µM', '22.8%');

###

Test system: SK-OV-3
Test: NCI-60 SRB screen
Assay type: cell-based, human
Details: Homo sapiens; SK-OV-3; single dose 10^−5 M; read-out: Growth inhibition (%)
// reported inhibition at 10 µM for each item listed
quantity: inhibition at 10 µM (%)

INSERT INTO results (compound, observed) VALUES
  ('CCN1CCN(C2C(=O)NC(c3cccc([N+](=O)[O-])c3)c3sc4c(F)cccc4c32)CC1 (centres unmarked)', -1.47),
  ('N#CC1C(=O)NC(c2cccc([N+](=O)[O-])c2)c2sc3c(F)cccc3c21 (centres unmarked)', -0.9),
  ('O=C1C(=Cc2ccccc2[N+](=O)[O-])Sc2c(F)cccc21', 2.42),
  ('COc1ccc(C2NC(=O)C(C#N)c3c2sc2c(F)cccc32)c(OC)c1 (centres unmarked)', 49.3),
  ('O=C1NC(c2ccccc2[N+](=O)[O-])c2sc3c(F)cccc3c2C1Cl (centres unmarked)', -9.85);

###

// reported inhibition at 10 µM for each item listed
System: SK-MEL-5
Experiment: NCI-60 SRB screen
Type: cell-based, human
Conditions: Homo sapiens; single dose 10^−5 M; SK-MEL-5, Melanoma; read-out: Growth inhibition (%)
quantity: inhibition at 10 µM (%)

INSERT INTO assay_data (compound, testtarget, observed) VALUES
  ('CCN1CCN(C2=C(C#N)c3c(sc4c(F)cccc34)C(c3cccc([N+](=O)[O-])c3)N2)CC1 (stereo not drawn)', 'SK-MEL-5', -10.7),
  ('O=[N+]([O-])c1cccc(C2NC(N3CCCCC3)=C(Cl)c3c2sc2c(F)cccc32)c1 (stereo not drawn)', 'SK-MEL-5', 0.27),
  ('CCN1CCN(C2=C(Cl)c3c(sc4c(F)cccc34)C(c3cccc([N+](=O)[O-])c3)N2)CC1 (stereo not drawn)', 'SK-MEL-5', -14.1),
  ('N#CC1=C(Cl)NC(c2cccc([N+](=O)[O-])c2)c2sc3c(F)cccc3c21 (stereo not drawn)', 'SK-MEL-5', -20.1),
  ('O=[N+]([O-])c1cccc(C2NC(N3CCOCC3)=C(Cl)c3c2sc2c(F)cccc32)c1 (stereo not drawn)', 'SK-MEL-5', -8.74),
  ('N#CC1=C(N2CCCCC2)NC(c2cccc([N+](=O)[O-])c2)c2sc3c(F)cccc3c21 (stereo not drawn)', 'SK-MEL-5', -14.8),
  ('N#CC1=C(Nc2ccccc2F)NC(c2cccc([N+](=O)[O-])c2)c2sc3c(F)cccc3c21 (stereo not drawn)', 'SK-MEL-5', -19.6),
  ('O=[N+]([O-])c1cccc(C2NC3=C(Nc4ccccc4N3)c3c2sc2c(F)cccc32)c1 (stereo not drawn)', 'SK-MEL-5', -22),
  ('N#CC1=C(N2CCOCC2)NC(c2cccc([N+](=O)[O-])c2)c2sc3c(F)cccc3c21 (stereo not drawn)', 'SK-MEL-5', -14.6);
